Attribution: paper PMC3637433

Biological target: RANTES (E66S mutant of human RANTES) (human)
Test: NMR titration
Square brackets hold non-standard residues; d marks the D form. Ends that are not written are not given here. sY = N[C@@H](Cc1ccc(OS(=O)(=O)O)cc1)C(=O)O
MEASURE: Kd

MDYQVSSPI[sY]DIN[sY]YTSEPAQKINVKQ [Nt-CCR5 peptide (CCR5 residues 1-27), sulfated at Y10 and Y14] :: 84 µM
